Listed here: items and their measured inhibition (INH).
test: Antioxidant activity assessed as inhibition of ABTS radical cation generation at 1 mg/ml by colorimetric method relative to control; format: physicochemical
Write it as a number; the unit % goes unstated.

COMPOUND: COc1ccc(/C=C/C2=NN(C(N)=S)C(c3ccc(OC)cc3)C2)cc1 (centres undefined)
inhibition (INH) / %: 84.52
//
COMPOUND: COc1ccc(/C=C2\CCCC3C2=NN(C2=NC(=O)/C(=C/c4ccc(Cl)cc4)S2)C3c2ccc(OC)cc2)cc1 (centres undefined)
inhibition (INH) / %: 25.73
//
COMPOUND: COc1ccc(/C=C2\CCC3C2=NN(c2nc(-c4ccc(Cl)cc4)cs2)C3c2ccc(OC)cc2)cc1 (centres undefined)
inhibition (INH) / %: 27.47

Name the reported inhibition (INH) value associated with the compound COc1ccc(/C=C2\CCCC3C2=NN(C2=NC(=O)/C(=C/c4ccc(OC)c(OC)c4)S2)C3c2ccc(OC)cc2)cc1 (centres undefined) 19.13
